Source: PubChem BioAssay (NCI)

system: T-47D breast; experiment: NCI-60 one-dose screen, 48 h (100 = growth as untreated, 0 = no growth, -100 = all killed); conditions: 10 µM unless noted
This is part of a sample that, as a whole, favours compounds with a hit. Of some 83,000 tested, about 20% had one in any assay. Active and inactive are the calls of the source. The calls were made as follows: active = growth percent below 10; inactive = the rest.
assay endpoint: growth

CC(=O)OCC1OC(OC2C(COC(C)=O)OC(OCCC[S-])C(OC(C)=O)C2OC(C)=O)C(OC(C)=O)C(OC(C)=O)C1OC(C)=O.[Au+].c1ccc(CN2[CH-]N(Cc3ccccc3)C(c3ccccc3)=C2c2ccccc2)cc1 (stereo unspecified) :: 18.8% (inactive)
[2H]c1nc(Nc2ncc3cc(C(=O)N(C)C)n(C4CCCC4)c3n2)c([2H])c([2H])c1N1C([2H])([2H])C([2H])([2H])NC([2H])([2H])C1([2H])[2H] :: 53.2% (inactive)
COc1ccc2oc(=O)cc(-c3nc4ccc(N)cc4[nH]3)c2c1 :: 51.8% (inactive)
CSc1nc(-c2ccc(F)cc2)c(C#N)c(N2CCOCC2)n1 :: 79.7% (inactive)

Task: Find growth (T-47D breast) for the entry CC(=O)c1cnc(-c2ccccc2)nc1CBr
Result: 38.5% (inactive)

Task: Hello, I am looking for reported growth with T-47D breast for Nc1n[nH]c2cccc(C#Cc3cccc(NC(=O)c4cc(N5CCOCC5)cc(C(F)(F)F)c4)c3)c12 . Could you help?
Result: 28.3% (inactive)

Task: What growth appears in the records for this molecule with T-47D breast? C=C1C(=O)O[C@H]2[C@H]1CC/C(COC(=O)NCC(=O)Nc1ccc(OC)c(C(N)=O)c1O)=C\CC[C@@]1(C)O[C@@H]21
Result: 34.4% (inactive)

Task: Fill in the recorded growth for this molecule, with T-47D breast as test system: Cc1[nH]c(N=Nc2ccccc2)nc1N=Nc1ccccc1
Result: 30.5% (inactive)

Task: Param readout = growth; param system = T-47D breast; param query = O=C(CCl)N1CCCc2ccccc21 ; response: value
Result: 106% (inactive)

Task: Fill in the recorded growth for this molecule, with T-47D breast as test system: COC(=O)/C=C1\SC(=Nc2cccc(OC)c2)N(CCc2c[nH]c3ccccc23)C1=O
Result: 46.1% (inactive)

Task: API: value(readout= growth, system= T-47D breast, query= COc1ccc(-c2nc(C#N)c(NCC(c3ccc(Cl)cc3)N3CCCCC3)o2)cc1 (stereo unspecified) )
Result: 94.8% (inactive)

---

test system: LOX IMVI melanoma; experiment: NCI-60 one-dose screen, 48 h; settings: 10 µM unless noted
About 83,000 compounds went through this panel and 20% of them were active in at least one assay; those are over-represented in the sample as a whole. Active and inactive are the calls of the source. How the source made its calls: active means growth percent below 10; inactive means the rest.
Select the matching outcome among yes (1) (active), no (0) (inactive)

COc1ccc([C@H]2[C@@H](F)C(=O)N2c2cc(OC)c(OC)c(OC)c2)cc1F :: no (0)
O=C(NC[C@H](O)CN1CCc2ccccc2C1)c1cc(NC2COC2)ncn1 :: no (0)
c1ccc(Sc2ncccn2)nc1 :: no (0)
CC(=O)c1ccc(NC(=O)CSc2nnc(-c3cc(-c4ccc(C)cc4)nc4ccccc34)o2)cc1 :: no (0)

Task: # fetch the recorded call for CC(=O)c1cnc(-c2ccccc2)nc1CBr here
Result: yes (1)

Task: What outcome does the record of this test show for NS(=O)(=O)c1ccc(-n2nc(-c3ccccc3)ccc2=O)cc1 ?
Result: no (0)

Task: Outcome? COc1ccc(C2CC(c3ccc(OC)cc3O)=NN2c2ccc(S(N)(=O)=O)cc2)cc1 (stereo not drawn)
Result: no (0)

Task: Hey, what did the test say about CC(C)(C)c1nn(-c2ccccc2)c2c1COCN2Cc1ccc(Cl)cc1 ?
Result: no (0)

Task: How was Cc1ccn2c3c(c(C(=O)O)c2c1)C(=O)c1ccccc1C3=O classified in this test?
Result: no (0)
